Taken from patent US20260070987A1.

target.of.assay: equine FcRn (large alpha subunit p51) in complex with equine beta-2-microglobulin (equine) (UniProt F6XZ61)
experiment.summary: SPR (Biacore), pH 6
Measured Kd, listed per entry.
Hi! Could you send only the number? It should be in nM, unit omitted.

Example entries begin here.
| binder | measure | readout.units | numeric.result |
| --- | --- | --- | --- |
| equine IgG7 K311F mutant (antibody, part only; not given: variable domains, not shown: another chain or arm of the molecule; small tags and cut ends) constant: ASTTAPKVFPLASHSAATSGSTVALGCLVSSYFPEPVTVSWNSGALTSGVHTFPSVLQSSGLYSLSSMVTVPASSLKSQTYICNVAHPASSTKVDKKIVIKECGGCPTCPECLSVGPSVFIFPPKPKDVLMISRTPTVTCVVVDVGHDFPDVQFNWYVDGVETHTATTEPKQEQNNSTYRVVSILAIQHFDWLSGKEFKCKVNNQALPAPVQKTISKPTGQPREPQVYVLAPHRDELSKNKVSVTCLVKDFYPTDIDIEWKSNGQPEPETKYSTTPAQLDSDGSYFLYSKLTVETNRWQQGTTFTCAVMHEALHNHYTEKSVSKSPGK | Kd | nM | 20.5 |
| equine IgG7 N434A mutant (antibody, part only; not given: variable domains, not shown: another chain or arm of the molecule) constant: ASTTAPKVFPLASHSAATSGSTVALGCLVSSYFPEPVTVSWNSGALTSGVHTFPSVLQSSGLYSLSSMVTVPASSLKSQTYICNVAHPASSTKVDKKIVIKECGGCPTCPECLSVGPSVFIFPPKPKDVLMISRTPTVTCVVVDVGHDFPDVQFNWYVDGVETHTATTEPKQEQNNSTYRVVSILAIQHKDWLSGKEFKCKVNNQALPAPVQKTISKPTGQPREPQVYVLAPHRDELSKNKVSVTCLVKDFYPTDIDIEWKSNGQPEPETKYSTTPAQLDSDGSYFLYSKLTVETNRWQQGTTFTCAVMHEALHAHYTEKSVSKSPGK | Kd | nM | 36.4 |
| equine IgG7 Y436C mutant (antibody, part only; not given: variable domains, not shown: another chain or arm of the molecule) constant: ASTTAPKVFPLASHSAATSGSTVALGCLVSSYFPEPVTVSWNSGALTSGVHTFPSVLQSSGLYSLSSMVTVPASSLKSQTYICNVAHPASSTKVDKKIVIKECGGCPTCPECLSVGPSVFIFPPKPKDVLMISRTPTVTCVVVDVGHDFPDVQFNWYVDGVETHTATTEPKQEQNNSTYRVVSILAIQHKDWLSGKEFKCKVNNQALPAPVQKTISKPTGQPREPQVYVLAPHRDELSKNKVSVTCLVKDFYPTDIDIEWKSNGQPEPETKYSTTPAQLDSDGSYFLYSKLTVETNRWQQGTTFTCAVMHEALHNHCTEKSVSKSPGK | Kd | nM | 12.5 |
| equine IgG7 K311D mutant (antibody, part only; not given: Variable domains, not shown: another chain or arm of the molecule) constant: ASTTAPKVFPLASHSAATSGSTVALGCLVSSYFPEPVTVSWNSGALTSGVHTFPSVLQSSGLYSLSSMVTVPASSLKSQTYICNVAHPASSTKVDKKIVIKECGGCPTCPECLSVGPSVFIFPPKPKDVLMISRTPTVTCVVVDVGHDFPDVQFNWYVDGVETHTATTEPKQEQNNSTYRVVSILAIQHDDWLSGKEFKCKVNNQALPAPVQKTISKPTGQPREPQVYVLAPHRDELSKNKVSVTCLVKDFYPTDIDIEWKSNGQPEPETKYSTTPAQLDSDGSYFLYSKLTVETNRWQQGTTFTCAVMHEALHNHYTEKSVSKSPGK | Kd | nM | 34.1 |
| equine IgG7 M428F mutant (antibody, part only; not given: variable domains, not shown: another chain or arm of the molecule) constant: ASTTAPKVFPLASHSAATSGSTVALGCLVSSYFPEPVTVSWNSGALTSGVHTFPSVLQSSGLYSLSSMVTVPASSLKSQTYICNVAHPASSTKVDKKIVIKECGGCPTCPECLSVGPSVFIFPPKPKDVLMISRTPTVTCVVVDVGHDFPDVQFNWYVDGVETHTATTEPKQEQNNSTYRVVSILAIQHKDWLSGKEFKCKVNNQALPAPVQKTISKPTGQPREPQVYVLAPHRDELSKNKVSVTCLVKDFYPTDIDIEWKSNGQPEPETKYSTTPAQLDSDGSYFLYSKLTVETNRWQQGTTFTCAVFHEALHNHYTEKSVSKSPGK | Kd | nM | 23.9 |

Kindly note the recorded Kd for equine IgG7 Y436F mutant (antibody, part only; not given: variable domains, not shown: another chain or arm of the molecule) constant: ASTTAPKVFPLASHSAATSGSTVALGCLVSSYFPEPVTVSWNSGALTSGVHTFPSVLQSSGLYSLSSMVTVPASSLKSQTYICNVAHPASSTKVDKKIVIKECGGCPTCPECLSVGPSVFIFPPKPKDVLMISRTPTVTCVVVDVGHDFPDVQFNWYVDGVETHTATTEPKQEQNNSTYRVVSILAIQHKDWLSGKEFKCKVNNQALPAPVQKTISKPTGQPREPQVYVLAPHRDELSKNKVSVTCLVKDFYPTDIDIEWKSNGQPEPETKYSTTPAQLDSDGSYFLYSKLTVETNRWQQGTTFTCAVMHEALHNHFTEKSVSKSPGK , which is 9.3

Kindly note the recorded Kd for equine IgG7 N434K mutant (antibody, part only; not given: variable domains, not shown: another chain or arm of the molecule; small tags and cut ends) constant: ASTTAPKVFPLASHSAATSGSTVALGCLVSSYFPEPVTVSWNSGALTSGVHTFPSVLQSSGLYSLSSMVTVPASSLKSQTYICNVAHPASSTKVDKKIVIKECGGCPTCPECLSVGPSVFIFPPKPKDVLMISRTPTVTCVVVDVGHDFPDVQFNWYVDGVETHTATTEPKQEQNNSTYRVVSILAIQHKDWLSGKEFKCKVNNQALPAPVQKTISKPTGQPREPQVYVLAPHRDELSKNKVSVTCLVKDFYPTDIDIEWKSNGQPEPETKYSTTPAQLDSDGSYFLYSKLTVETNRWQQGTTFTCAVMHEALHKHYTEKSVSKSPGK , which is 31.7

Kindly note the recorded Kd for equine IgG7 K311N mutant (antibody, part only; not given: variable domains, not shown: another chain or arm of the molecule) constant: ASTTAPKVFPLASHSAATSGSTVALGCLVSSYFPEPVTVSWNSGALTSGVHTFPSVLQSSGLYSLSSMVTVPASSLKSQTYICNVAHPASSTKVDKKIVIKECGGCPTCPECLSVGPSVFIFPPKPKDVLMISRTPTVTCVVVDVGHDFPDVQFNWYVDGVETHTATTEPKQEQNNSTYRVVSILAIQHNDWLSGKEFKCKVNNQALPAPVQKTISKPTGQPREPQVYVLAPHRDELSKNKVSVTCLVKDFYPTDIDIEWKSNGQPEPETKYSTTPAQLDSDGSYFLYSKLTVETNRWQQGTTFTCAVMHEALHNHYTEKSVSKSPGK , which is 38
